Test: Half-life in human liver microsomes
Assay type: ADME, Microsome
property.measured: half-life (h)

molecule.smiles: Cn1cc(-c2ccc(N3CCC([C@H]4c5c(F)cccc5-c5cncn54)CC3)cc2)cn1
property.measured: half-life
numeric.result: 2.45

* * *

Target: Indoleamine 2,3-dioxygenase 1 (Homo sapiens)
Sequence (P14902 whole entry): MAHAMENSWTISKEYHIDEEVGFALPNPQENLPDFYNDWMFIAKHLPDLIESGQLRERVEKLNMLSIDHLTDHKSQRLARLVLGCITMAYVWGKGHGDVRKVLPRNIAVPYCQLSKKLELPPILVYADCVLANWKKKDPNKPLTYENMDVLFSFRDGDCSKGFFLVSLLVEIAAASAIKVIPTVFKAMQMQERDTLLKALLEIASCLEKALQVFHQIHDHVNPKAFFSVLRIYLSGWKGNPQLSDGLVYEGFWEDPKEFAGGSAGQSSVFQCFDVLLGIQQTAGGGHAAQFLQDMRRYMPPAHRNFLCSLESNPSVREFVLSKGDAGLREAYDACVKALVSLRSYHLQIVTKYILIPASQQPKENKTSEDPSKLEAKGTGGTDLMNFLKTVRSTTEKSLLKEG
Experiment: Inhibition of IDO in human HeLa cells using tryptophan as substrate measured after 48 hrs in presence of INF gamma microplate reader analysis
Format: cell-based
In this section we review reported IC50 values for a set of compounds.

compound: Fc1cccc2c1C(C1CCN(c3nc4ccccc4s3)CC1)n1cncc1-2 (stereo not drawn)
IC50 [nM]: 440
--
compound: Cn1cc(-c2cnc(N3CCC(C4c5c(F)cccc5-c5cncn54)CC3)nc2)cn1 (stereo not drawn)
IC50 [nM]: 324
--
compound: Fc1cccc2c1C(C1CCN(c3ccc(N4CCOCC4)cc3)CC1)n1cncc1-2 (stereo not drawn)
IC50 [nM]: 1710
--
compound: Fc1cccc2c1C(C1CCN(c3nccs3)CC1)n1cncc1-2 (stereo not drawn)
IC50 [nM]: 571
--
compound: Cc1cc(N2CCC(C3c4c(F)cccc4-c4cncn43)CC2)ccc1-c1cnn(C)c1 (stereo not drawn)
IC50 [nM]: 121
--
compound: Fc1cccc2c1C(C1CCOCC1)n1cncc1-2 (stereo not drawn)
IC50 [nM]: 5340
--
compound: Fc1cccc2c1C(C1CCN(c3ccc(-c4ccncc4)cc3)CC1)n1cncc1-2 (stereo not drawn)
IC50 [nM]: 280
--
compound: Fc1cccc2c1C(C1CCCCC1)n1cncc1-2 (stereo not drawn)
IC50 [nM]: 568
--
compound: Cn1ccc2ccc(N3CCC(C4c5c(F)cccc5-c5cncn54)CC3)cc21 (stereo not drawn)
IC50 [nM]: 203
--
compound: Fc1cccc2c1C(C1CCN(c3ccc(-c4cccnc4)cc3)CC1)n1cncc1-2 (stereo not drawn)
IC50 [nM]: 240
--
compound: Fc1cccc2c1C(C1CCN(c3ccccc3)CC1)n1cncc1-2 (stereo not drawn)
IC50 [nM]: 544
--
compound: Cc1cc(-c2cnn(C)c2)ccc1N1CCC(C2c3c(F)cccc3-c3cncn32)CC1 (stereo not drawn)
IC50 [nM]: 691
--
compound: Fc1cccc2c1C(C1CCCC1)n1cncc1-2 (stereo not drawn)
IC50 [nM]: 1240

* * *

Test: AUC in Beagle dog at 2 mg/kg via oral gavage measured upto 24 hrs
Format: ADME, organism-based, Canis lupus familiaris
Set-up: time < 24 hr, dose 2 mg/kg, route oral
Conditions: in vivo

molecule.smiles: Cn1cc(-c2ccc(N3CCC([C@H]4c5c(F)cccc5-c5cncn54)CC3)cc2)cn1
unit.label: µg·h/mL
AUC at 24 h: 1.34

* * *

Biological target: Tryptophan 2,3-dioxygenase (Homo sapiens)
Sequence (P48775 whole entry): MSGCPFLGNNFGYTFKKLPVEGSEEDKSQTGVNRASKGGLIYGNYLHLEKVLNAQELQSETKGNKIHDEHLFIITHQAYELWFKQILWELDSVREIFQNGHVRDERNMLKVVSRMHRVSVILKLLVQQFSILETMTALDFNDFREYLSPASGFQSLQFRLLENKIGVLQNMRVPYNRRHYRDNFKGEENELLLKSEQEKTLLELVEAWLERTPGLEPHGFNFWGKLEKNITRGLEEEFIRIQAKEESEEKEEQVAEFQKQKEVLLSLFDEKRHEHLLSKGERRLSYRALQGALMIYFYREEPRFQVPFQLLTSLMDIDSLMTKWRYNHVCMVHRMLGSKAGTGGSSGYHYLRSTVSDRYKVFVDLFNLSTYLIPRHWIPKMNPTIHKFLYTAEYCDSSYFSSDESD
Test: Inhibition of human TDO expressed in Escherichia coli Rosetta measured after 1 hr microplate reader analysis

compound: Fc1cccc2c1C(c1ccccc1)n1cncc1-2 (stereo not drawn)
IC50: 374 nM
//
compound: O=C(c1ccccc1)N1CCC(C2c3c(F)cccc3-c3cncn32)CC1 (stereo not drawn)
IC50: 1270 nM
//
compound: Cc1cc(N2CCC(C3c4c(F)cccc4-c4cncn43)CC2)ccc1-c1cnn(C)c1 (stereo not drawn)
IC50: 114 nM

* * *

List of IC50 tested on UniProt P48775.
property.measured: IC50

compound: Fc1cccc2c1C(C1CCN(c3nc4ccccc4s3)CC1)n1cncc1-2 (stereo not given)
result: 195 nM
--
compound: Cn1cc(-c2cnc(N3CCC(C4c5c(F)cccc5-c5cncn54)CC3)nc2)cn1 (stereo not given)
result: 579 nM
--
compound: O[C@H](C[C@H]1c2c(F)cccc2-c2cncn21)[C@H]1CC[C@H](O)CC1
result: 247 nM
--
compound: Fc1cccc2c1C(C1CCNCC1)n1cncc1-2 (stereo not given)
result: > 10000 nM
--
compound: Fc1cccc2c1C(C1CCN(c3ccc(-c4ccncc4)cc3)CC1)n1cncc1-2 (stereo not given)
result: 353 nM
